# Target Of Assay: recombinant human Cathepsin K (Homo sapiens (Human), UniProt P43235)
# Sequence (P43235 115-329): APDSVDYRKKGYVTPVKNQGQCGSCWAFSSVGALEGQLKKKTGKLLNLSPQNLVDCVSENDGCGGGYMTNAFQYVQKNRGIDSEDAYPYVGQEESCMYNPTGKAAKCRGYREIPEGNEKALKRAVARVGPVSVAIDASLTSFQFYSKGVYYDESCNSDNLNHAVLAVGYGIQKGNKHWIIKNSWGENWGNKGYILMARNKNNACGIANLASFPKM
# Assay Method Text: Inhibition of human Cathepsin K
# Reported Conditions: substrate Z-Gly-Pro-Arg-AMC
Decision: IC50 beneath 9 µM gives 1; IC50 meeting or exceeding 9 µM gives 0.

Report whether reported IC50 is lower than 9 µM (strictly) for `N#C[C@H](Cc1ccc(-c2cnn(CC3CCOCC3)c2)cc1F)NC(=O)[C@H]1N[C@@H]2CC[C@H]1C2`
1

Could you do the same for N#Cc1ccc(-c2ccc(CC(C#N)NC(=O)[C@H]3N[C@@H]4CC[C@H]3C4)c(F)c2)cc1F (stereo partly shown) , please?
1

Could you do the same for N#CC(Cc1ccc(-c2ccc3c(c2)CCNC3=O)cc1F)NC(=O)[C@H]1N[C@H]2C[C@@H]1[C@@H]1C[C@@H]12 (stereo partly shown) , please?
0

Could you do the same for `Cn1nc2ccccc2c1-c1ccc(C[C@@H](C#N)NC(=O)[C@H]2N[C@@H]3CC[C@H]2C3)c(F)c1` , please?
0

Could you do the same for `N#C[C@H](Cc1ccc(-c2cccc(S(N)(=O)=O)c2)cc1F)NC(=O)[C@H]1N[C@H]2C[C@@H]1[C@@H]1C[C@@H]12` , please?
1

Could you do the same for `CCc1ncc(-c2ccc(C[C@@H](C#N)NC(=O)[C@H]3N[C@@H]4CC[C@H]3C4)c(F)c2)s1` , please?
1

* * *

I'd be grateful if you could share measured IC50 for these entries.
# Target Of Assay: recombinant human Cathepsin K (Homo sapiens (Human))
# Assay Method Text: Inhibition of human Cathepsin K
# Reported Conditions: substrate Z-Gly-Pro-Arg-AMC
// units = µM; emit number, no label

Sample `N#C[C@H](Cc1ccc(-c2ccc3c(c2)CC(=O)N3)cc1F)NC(=O)[C@H]1N[C@H]2C[C@@H]1[C@@H]1C[C@@H]12` — what was its IC50?
6.7

Could you do the same for `CCn1cc(-c2ccc(C[C@@H](C#N)NC(=O)[C@H]3N[C@H]4C[C@@H]3[C@@H]3C[C@@H]34)c(F)c2)cn1` , please?
6.4

Could you do the same for `N#C[C@H](Cc1ccc(-c2cnn(C[C@@H]3CCOC3)c2)cc1F)NC(=O)[C@H]1N[C@@H]2CC[C@H]1C2` , please?
2.8

Could you do the same for `N#C[C@H](Cc1ccc(-c2cnn(C[C@@H]3CCCO3)c2)cc1F)NC(=O)[C@H]1N[C@@H]2CC[C@H]1C2` , please?
3.8

Could you do the same for `CN1Cc2cc(-c3ccc(C[C@@H](C#N)NC(=O)[C@H]4N[C@H]5C[C@@H]4[C@@H]4C[C@@H]45)c(F)c3)ccc2C1=O` , please?
7.6

Could you do the same for `Cn1cc(-c2ccc(C[C@@H](C#N)NC(=O)[C@H]3N[C@@H]4CC[C@H]3C4)c(F)c2)ccc1=O` , please?
4.5

Could you do the same for `COCc1cn(-c2ccc(C[C@@H](C#N)NC(=O)[C@H]3N[C@@H]4CC[C@H]3C4)c(F)c2)nn1` , please?
4.3

* * *

I'd be grateful if you could share measured log10 of IC50 for these entries.
# Target Of Assay: recombinant human DPPI (Cathepsin C) (Homo sapiens (Human))
# Sequence (P53634 231-394): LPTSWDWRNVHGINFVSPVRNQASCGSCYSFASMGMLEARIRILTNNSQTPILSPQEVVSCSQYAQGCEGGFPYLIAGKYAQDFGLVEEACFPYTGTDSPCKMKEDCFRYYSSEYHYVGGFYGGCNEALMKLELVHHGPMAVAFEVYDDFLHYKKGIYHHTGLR
# Sequence (P53634 395-463): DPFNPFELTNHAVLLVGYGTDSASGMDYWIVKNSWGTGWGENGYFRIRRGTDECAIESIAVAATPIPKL
# Sequence (P53634 25-134): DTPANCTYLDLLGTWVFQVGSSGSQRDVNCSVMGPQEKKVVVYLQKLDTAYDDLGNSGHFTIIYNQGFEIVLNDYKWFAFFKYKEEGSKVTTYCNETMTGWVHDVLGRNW
# Assay Method Text: Inhibition of human DPPI (Cathepsin C)
# Reported Conditions: substrate Gly-Arg-AMC
Parameter value (number): base-10 log of IC50 in nM.

Sample `CN1CCC2(CC1)CC(c1ccc(C[C@@H](C#N)NC(=O)[C@H]3N[C@@H]4CC[C@H]3C4)c(F)c1)C2` — what was its log10 of IC50?
1.34

Could you do the same for N#C[C@H](Cc1ccc(C2CCCN(C3CCOC3)C2)cc1F)NC(=O)[C@H]1N[C@@H]2CC[C@H]1C2 (stereo partly shown) , please?
1.65

Could you do the same for `Cn1cc(-c2ccc(C[C@@H](C#N)NC(=O)[C@H]3N[C@@H]4CC[C@H]3C4)c(F)c2)c(C(F)(F)F)n1` , please?
1.65

Could you do the same for `CN1C(=O)Cc2ccc(-c3ccc(C[C@@H](C#N)NC(=O)[C@H]4N[C@@H]5CC[C@H]4C5)c(F)c3)cc21` , please?
0.30

Could you do the same for CN(C)CC1CCCN(c2ccc(C[C@@H](C#N)NC(=O)[C@H]3N[C@@H]4CC[C@H]3C4)c(F)c2)C1 (stereo partly shown) , please?
1.26

Could you do the same for `N#C[C@H](Cc1ccc(-c2csc(C(=O)N3CCOCC3)c2)cc1F)NC(=O)[C@H]1N[C@@H]2CC[C@H]1C2` , please?
0.26

Could you do the same for N#CC(Cc1ccc(-c2ncc(Cl)cn2)cc1F)NC(=O)[C@H]1N[C@@H]2CC[C@H]1C2 (stereo partly shown) , please?
1.31

Could you do the same for `CN1CCCN(S(=O)(=O)c2ccc(-c3ccc(C[C@@H](C#N)NC(=O)[C@H]4N[C@@H]5CC[C@H]4C5)c(F)c3)cc2)CC1` , please?
0.26

Could you do the same for N#CC(Cc1ccc2c(c1)[nH]c1ccccc12)NC(=O)[C@H]1N[C@@H]2CC[C@H]1C2 (stereo partly shown) , please?
1.37

Could you do the same for `CCOCc1cn(-c2ccc(C[C@@H](C#N)NC(=O)[C@H]3N[C@@H]4CC[C@H]3C4)c(F)c2)nn1` , please?
1.40

Could you do the same for `CC1(C)OC(=O)c2cc(-c3ccc(C[C@@H](C#N)NC(=O)[C@H]4N[C@@H]5CC[C@H]4C5)c(F)c3)ccc21` , please?
0.52

Could you do the same for `CCN1CCN(c2ccc(C[C@@H](C#N)NC(=O)[C@H]3N[C@@H]4CC[C@H]3C4)c(F)c2)CC1` , please?
0.83

Could you do the same for `CCn1nccc1-c1ccc(C[C@@H](C#N)NC(=O)[C@H]2N[C@@H]3CC[C@H]2C3)c(F)c1` , please?
1.46

Could you do the same for `CN1CCN(C(=O)c2ccc(-c3ccc(C[C@@H](C#N)NC(=O)[C@H]4N[C@@H]5CC[C@H]4C5)c(F)c3)o2)CC1` , please?
0.40

Could you do the same for `CN(C)CCN1C(=O)Cc2ccc(-c3ccc(C[C@@H](C#N)NC(=O)[C@H]4N[C@@H]5CC[C@H]4C5)c(F)c3)cc21` , please?
0.00

Could you do the same for CC1CN(c2ccc(C[C@@H](C#N)NC(=O)[C@H]3N[C@@H]4CC[C@H]3C4)c(F)c2)C(C)CN1C (stereo partly shown) , please?
1.18

* * *

# Target Of Assay: recombinant human Cathepsin K (Homo sapiens (Human))
# Assay Method Text: Inhibition of human Cathepsin K
# Reported Conditions: substrate Z-Gly-Pro-Arg-AMC
Reported Property: pIC50
// scale note: pIC50 = -log10(conc_M); give the bare number

Sample N#C[C@H](Cc1ccc(-c2cnn(CC3CCOCC3)c2)c(F)c1F)NC(=O)[C@H]1N[C@@H]2CC[C@H]1C2 [Example 218] — what was its pIC50?
4.59

Could you do the same for CN1CC2CCC(C1)N2c1ccc(C[C@@H](C#N)NC(=O)[C@H]2N[C@@H]3CC[C@H]2C3)c(F)c1 [Example 328] , please?
5.11

Could you do the same for N#C[C@H](Cc1ccc(-c2cn[nH]c2)cc1F)NC(=O)[C@H]1N[C@@H]2CC[C@H]1C2 [Example 69] , please?
5.62

Could you do the same for N#CC(Cc1cc2c(=O)[nH]c3ccccc3c2cc1F)NC(=O)[C@H]1N[C@@H]2CC[C@H]1C2 (stereo partly shown) [Example 294] , please?
5.66

Could you do the same for CC(=O)N1CCC(Cn2cc(-c3ccc(C[C@@H](C#N)NC(=O)[C@H]4N[C@@H]5CC[C@H]4C5)c(F)c3)cn2)CC1 [Example 55] , please?
5.41

Could you do the same for CS(=O)(=O)c1ccc(-c2ccc(C[C@@H](C#N)NC(=O)[C@H]3N[C@@H]4CC[C@H]3C4)c(F)c2)cc1C#N [Example 159] , please?
5.48

Could you do the same for N#CC(Cc1ccc(-c2cnn(-c3ccccc3)c2)cc1F)NC(=O)[C@H]1N[C@@H]2CC[C@H]1C2 (stereo partly shown) [Example 78] , please?
5.17

Could you do the same for Cn1c(=O)oc2cc(-c3ccc(CC(C#N)NC(=O)[C@H]4N[C@@H]5CC[C@H]4C5)c(F)c3)ccc21 (stereo partly shown) [Example 107] , please?
5.33

Could you do the same for N#C[C@H](Cc1ccc(N2CCN(C3CCOC3)CC2)cc1F)NC(=O)[C@H]1N[C@@H]2CC[C@H]1C2 (stereo partly shown) [Example 331] , please?
5.82

Could you do the same for COc1ncc(-c2cn(-c3ccc(C[C@@H](C#N)NC(=O)[C@H]4N[C@@H]5CC[C@H]4C5)c(F)c3)nn2)cn1 [Example 66] , please?
5.32

Could you do the same for N#CC(Cc1ccc(-c2cnc(Cl)cn2)cc1F)NC(=O)[C@H]1N[C@@H]2CC[C@H]1C2 (stereo partly shown) [Example 102] , please?
5.37

Could you do the same for Cc1cc(-c2ccc(CC(C#N)NC(=O)[C@H]3N[C@@H]4CC[C@H]3C4)c(F)c2)n[nH]1 (stereo partly shown) [Example 58] , please?
4.95

Could you do the same for N#C[C@H](Cc1cc2c(=O)[nH]c3c(F)c(F)ccc3c2cc1F)NC(=O)[C@H]1N[C@@H]2CC[C@H]1C2 [Example 324] , please?
6.10

Could you do the same for N#C[C@H](Cc1ccc(-c2ccc(C(N)=O)cc2)cc1F)NC(=O)[C@H]1N[C@H]2C[C@@H]1[C@@H]1C[C@@H]12 [Example 130] , please?
4.99

Could you do the same for N#CC(Cc1ccc2c(c1)[nH]c1ccccc12)NC(=O)[C@H]1N[C@@H]2CC[C@H]1C2 (stereo partly shown) [Example 203] , please?
5.08

Could you do the same for CN1CCC2CN(c3ccc(C[C@@H](C#N)NC(=O)[C@H]4N[C@@H]5CC[C@H]4C5)c(F)c3)CC21 (stereo partly shown) [Example 349] , please?
5.30

Source of measurements: patent US8987249B2
